target: Dopamine (D-2) receptor (Cavia porcellus); construct: Membranes were prepared from guinea pig striatum; from tissue; host or cells: guinea pig striatum membranes; experiment: Dopamine Receptor Binding; assay type: guinea pig, striatum membranes; conditions: 0.15 nM [3H]spiperone, guinea pig striatum, pH 7.7, 15 min 37° C.; read-out: Receptor Binding Affinity Dopamine (D-2) (Ki class)
pKi: −log10 of the molar value.
Catalogue of pKi readings, one per entry.
readout.kind: pKi

>>> value("CC1C2=C(CCCC2)C(=O)N1CC1CCN(CCc2ccccc2)CC1 (stereo not shown) [Example 70]")
"6.30 to 7.00"
>>> value("O=C1[C@H]2CCCC[C@H]2C(=O)N1CC1(c2csc3ccccc23)CCN(CCc2ccccc2)CC1 [Example 129]")
"6.30 to 7.00"
>>> value("O=C1[C@H]2CC=CC[C@H]2C(=O)N1CC1CCN(CCc2ccccc2)CC1 [Example 1]")
"< 6.30"
>>> value("O=C1C2C3CCCC(CC3)C2C(=O)N1CC1CCN(CCc2ccccc2)CC1 (stereo not shown) [Example 61]")
"< 6.30"

* * *

Catalogue of pKi readings, one per entry.
target: Sigma receptor (Cavia porcellus, UniProt Q60492); construct: Brain membranes were prepared by the method of Tam; from tissue; host or cells: guinea pig whole brain membranes; test: Sigma Receptor Binding Assay; format: guinea pig (male Hartley), brain membranes; settings: 1 nM (+)-[3H]SKF 10,047, guinea pig brain membranes, pH 7.4, 45 min room temperature; read-out: Receptor Binding Affinity Sigma (Ki class)
Sequence (Q60492 whole entry): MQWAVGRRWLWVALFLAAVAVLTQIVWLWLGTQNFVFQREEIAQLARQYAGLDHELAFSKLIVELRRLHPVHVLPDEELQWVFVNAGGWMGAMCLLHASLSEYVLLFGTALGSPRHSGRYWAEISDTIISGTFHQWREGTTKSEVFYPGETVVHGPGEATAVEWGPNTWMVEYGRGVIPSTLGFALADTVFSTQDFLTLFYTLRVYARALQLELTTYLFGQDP
pKi: −log10 of the molar value.
readout.kind: pKi

>>> value("O=C1C2C3CCCC(CC3)C2C(O)N1CC1CCN(CCc2ccccc2)CC1 (stereo not drawn) [Example 73]")
"7.00 to 7.51"
>>> value("O=C1[C@H]2CCCC[C@H]2C(=O)N1CC1CCN(CC2CCCCC2)CC1 [Example 15]")
"7.52 to 9.00"
>>> value("O=C1c2ccccc2C(=O)N1CCC1CCCCN1Cc1ccccc1 (stereo not drawn) [Example 50]")
"7.00 to 7.51"
>>> value("CCC(C)C1C2=C(CCCC2)C(=O)N1CC1CCN(CCc2ccccc2)CC1 (stereo not drawn) [Example 140]")
"7.00 to 7.51"
>>> value("O=C1c2ccccc2C(=O)N1CCCC1CCN(Cc2ccccc2)CC1 [Example 43]")
"7.52 to 9.00"
>>> value("O=C1c2ccccc2C(=O)N1CCC1CCN(CC2CC2)CC1 [Example 42]")
"7.52 to 9.00"
>>> value("O=C1C2C3C=CC(C4CCC34)C2C(=O)N1CC1CCN(CCc2ccccc2)CC1 (stereo not drawn) [Example 59]")
"7.00 to 7.51"
>>> value("O=C1C2=C(CCCC2)C(=O)N1CC1CCN(CCc2ccccc2)CC1 [Example 56]")
"7.52 to 9.00"
>>> value("O=C1C2=C(CCCC2)C(c2ccc(F)cc2)N1CC1CCN(CCc2ccccc2)CC1 (stereo not drawn) [Example 136]")
"7.00 to 7.51"

* * *

biological target: Dopamine (D-2) receptor (Cavia porcellus); construct: Membranes were prepared from guinea pig striatum; from tissue; host or cells: guinea pig striatum membranes; assay: Dopamine Receptor Binding; assay type: guinea pig, striatum membranes; settings: 0.15 nM [3H]spiperone, guinea pig striatum, pH 7.7, 15 min 37° C.; read-out: Receptor Binding Affinity Dopamine (D-2) (Ki class)
pKi: −log10 of the molar value.
Catalogue of pKi readings, one per entry.
readout.kind: pKi

>>> value("O=C1[C@H]2CCCC[C@H]2C(=O)N1CC1CCN(CCc2ccc(O)cc2)CC1")
"6.30 to 7.00"
>>> value("O=C1[C@H]2CCCC[C@H]2C(=O)N1CC1CCN(CCc2ccc([N+](=O)[O-])cc2)CC1")
"< 6.30"
>>> value("O=C1c2ccccc2C(=O)N1CCC1CCN(CC2CC2)CC1")
"< 6.30"
>>> value("O=C1C2C3CCC(O3)C2C(=O)N1CC1CCN(CCc2ccccc2)CC1 (centres unmarked)")
"< 6.30"
>>> value("O=C1[C@H]2CCCC[C@H]2C(=O)N1CC1CCN(Cc2ccccc2)CC1")
"< 6.30"

* * *

biological target: Sigma receptor (Cavia porcellus, UniProt Q60492); construct: Brain membranes were prepared by the method of Tam; from tissue; host or cells: guinea pig whole brain membranes; assay: Sigma Receptor Binding Assay; format: guinea pig (male Hartley), brain membranes; conditions: 1 nM (+)-[3H]SKF 10,047, guinea pig brain membranes, pH 7.4, 45 min room temperature; read-out: Receptor Binding Affinity Sigma (Ki class)
Catalogue of Ki readings, one per entry.
readout.kind: Ki

>>> value("O=C1C2C3C=CC(C4CCC34)C2C(=O)N1CC1(O)CCN(CCc2ccccc2)CC1 (stereo not drawn)")
"31 to 100 nM"
>>> value("O=C1C2C3C=CC(CCC3)C2C(=O)N1CC1CCN(CCc2ccccc2)CC1 (stereo not drawn)")
"1 to 30 nM"
>>> value("CC1(O)C2CCCCC2C(=O)N1CC1CCN(CCc2ccccc2)CC1 (stereo not drawn)")
"101 to 500 nM"
>>> value("CC12CC=CCC1(C)C(=O)N(CC1CCN(CCc3ccccc3)CC1)C2=O (stereo not drawn)")
"31 to 100 nM"
>>> value("O=C1c2ccccc2C(=O)N1CC1CCN(Cc2ccc(F)cc2)CC1")
"1 to 30 nM"
>>> value("O=C1c2ccccc2C(=O)N1CC1CCN(CCc2ccccc2)CC1")
"31 to 100 nM"
>>> value("O=C1C2C3CCC(C3)C2CN1CC1CCN(CCc2ccccc2)CC1 (stereo not drawn)")
"31 to 100 nM"
>>> value("O=C1C2CC(O)C(O)CC2C(=O)N1CC1CCN(CCc2ccccc2)CC1 (stereo not drawn)")
"> 500 nM"
>>> value("O=C1c2ccccc2C(=O)N1CC1CCN(CC2CC2)CC1")
"101 to 500 nM"

* * *

Catalogue of Ki readings, one per entry.
molecular target: Dopamine (D-2) receptor (Cavia porcellus); construct: Membranes were prepared from guinea pig striatum; from tissue; host or cells: guinea pig striatum membranes; experiment: Dopamine Receptor Binding; format: guinea pig, striatum membranes
readout.kind: Ki

>>> value("O=C1[C@H]2CCCC[C@H]2C(=O)N1CC1CCN(CCc2c[nH]c3ccccc23)CC1")
"> 0.5 µM"
>>> value("COc1cccc(C2(CN3C(=O)C4CCCCC4C3=O)CCN(CCc3ccccc3)CC2)c1 (centres unmarked)")
"> 0.5 µM"

* * *

target: Sigma receptor (Cavia porcellus); construct: Brain membranes were prepared by the method of Tam; from tissue; host or cells: guinea pig whole brain membranes; assay: Sigma Receptor Binding Assay; type: guinea pig (male Hartley), brain membranes; conditions: 1 nM (+)-[3H]SKF 10,047, guinea pig brain membranes, pH 7.4, 45 min room temperature; read-out: Receptor Binding Affinity Sigma (Ki class)
pKi: −log10 of the molar value.
readout.kind: pKi

>>> value("O=C1C2C3CCCC(CC3)C2C(=O)N1CC1CCN(CCc2ccccc2)CC1 (stereo not drawn) [Example 61]")
"7.52 to 9.00"
>>> value("CCCC1C2c3ccccc3C=CC2C(=O)N1CCC1CCN(CCc2ccccc2)CC1 (stereo not drawn) [Example 86]")
"6.30 to 7.00"
>>> value("O=C1[C@H]2CCCC[C@H]2C(=O)N1CC1CCN(CC2CC2)CC1 [Example 21]")
"6.30 to 7.00"
>>> value("CC12CCCCC1C(=O)N(CC1CCN(CCc3ccccc3)CC1)C2=O (stereo not drawn) [Example 64]")
"7.00 to 7.51"
>>> value("O=C1C2C(c3ccccc3)CCC(c3ccccc3)C2C(=O)N1CC1CCN(CCc2ccccc2)CC1 (stereo not drawn) [Example 68]")
"6.30 to 7.00"
>>> value("O=C1[C@H]2CCCC[C@H]2C(=O)N1CC1CCN(CCc2ccc(O)cc2)CC1 [Example 19]")
"6.30 to 7.00"
>>> value("O=C1C2=C(CCCC2)CN1CC1CCN(CCc2ccccc2)CC1 [Example 6]")
"7.00 to 7.51"
>>> value("O=C1c2cccc3cccc(c23)C(=O)N1CCC1CCN(CCc2ccccc2)CC1 [Example 9]")
"7.52 to 9.00"
>>> value("O=C1[C@H]2CCCC[C@H]2C(=O)N1CC1CCN(CCc2ccccc2)CC1 [Example 3]")
"7.52 to 9.00"

* * *

target: Dopamine (D-2) receptor (Cavia porcellus, UniProt H0VE83); construct: Membranes were prepared from guinea pig striatum; from tissue; host or cells: guinea pig striatum membranes; test: Dopamine Receptor Binding; format: guinea pig, striatum membranes; settings: 0.15 nM [3H]spiperone, guinea pig striatum, pH 7.7, 15 min 37° C.; read-out: Receptor Binding Affinity Dopamine (D-2) (Ki class)
Sequence (H0VE83 1-446): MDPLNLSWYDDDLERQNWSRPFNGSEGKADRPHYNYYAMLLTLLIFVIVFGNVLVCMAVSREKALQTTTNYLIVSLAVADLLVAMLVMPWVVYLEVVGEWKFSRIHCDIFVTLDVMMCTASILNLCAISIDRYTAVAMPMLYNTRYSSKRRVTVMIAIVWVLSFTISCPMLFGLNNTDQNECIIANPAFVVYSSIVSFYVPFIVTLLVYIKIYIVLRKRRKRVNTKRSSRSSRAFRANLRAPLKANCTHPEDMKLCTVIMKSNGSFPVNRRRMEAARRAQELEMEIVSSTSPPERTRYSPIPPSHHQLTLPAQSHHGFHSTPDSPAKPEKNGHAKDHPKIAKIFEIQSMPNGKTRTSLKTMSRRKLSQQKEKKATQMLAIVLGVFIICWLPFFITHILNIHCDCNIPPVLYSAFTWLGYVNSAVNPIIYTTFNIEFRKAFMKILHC
pKi: −log10 of the molar value.
readout.kind: pKi

>>> value("O=C1c2ccccc2C(=O)N1CCCC1CCN(Cc2ccccc2)CC1")
"< 6.30"
>>> value("O=C1[C@H]2CCCC[C@H]2C(=O)N1CC1(c2ccc(Cl)cc2)CCN(CCc2ccccc2)CC1")
"< 6.30"
>>> value("O=C1C2CC=CCC2C(=O)N1CC1CCN(CCc2ccccc2)CC1 (centres unmarked)")
"< 6.30"
>>> value("O=C1C2C3CCC(C4CCC43)C2C(=O)N1CC1CCN(CCc2ccccc2)CC1 (centres unmarked)")
"6.30 to 7.00"
>>> value("O=C1[C@H]2CCCC[C@H]2C(=O)N1CCCC1=CCN(CCc2ccccc2)CC1")
"< 6.30"
